System name: IDO1 (Homo sapiens, UniProt P14902)
Sequence (P14902 whole entry): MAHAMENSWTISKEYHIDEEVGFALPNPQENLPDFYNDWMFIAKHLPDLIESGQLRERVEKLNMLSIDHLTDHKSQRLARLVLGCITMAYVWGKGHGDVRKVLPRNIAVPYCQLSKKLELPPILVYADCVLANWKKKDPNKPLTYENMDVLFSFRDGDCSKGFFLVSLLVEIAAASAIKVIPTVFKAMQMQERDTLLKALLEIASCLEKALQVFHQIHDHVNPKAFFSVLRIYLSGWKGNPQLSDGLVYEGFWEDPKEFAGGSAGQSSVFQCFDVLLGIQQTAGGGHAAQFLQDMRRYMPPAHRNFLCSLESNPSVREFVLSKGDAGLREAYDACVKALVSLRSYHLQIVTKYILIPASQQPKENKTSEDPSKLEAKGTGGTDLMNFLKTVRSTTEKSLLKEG
Assay info: IDO1 Cellular Assay in HeLa Cells Stimulated with IFNγ
Type: cell-based
Condition details: read-out: HeLa Cell Potency, IC50
Label scheme for IC50: lower level: < 2 nM; middle level: ≥ 2 nM and < 6 nM; upper level: ≥ 6 nM

Inquiry: # classify by IC50 band: Cc1cccc(N2CCN(C(=O)Cn3nc(C(=O)N4CCC(C(F)F)C4)c4c3C[C@H]3C[C@@H]43)CC2)c1C (some centres unmarked) [Example 233]
Reply text: middle level

----------
System name: IDO1 (Homo sapiens, UniProt P14902)
Assay info: IDO1 Cellular Assay in HeLa Cells Stimulated with IFNγ
Type: cell-based
Condition details: read-out: HeLa Cell Potency, IC50
Measured parameter: IC50 (nM)
Give bare numbers, in nM.

// below: answered molecules
[
  {
    "Molecule": "Cc1cccc(N2CCN(C(=O)Cn3nc(C(=O)N4CC[C@H](O)[C@H](C)C4)c4c3C[C@H]3C[C@@H]43)CC2)c1C",
    "System name": "IDO1 (Homo sapiens, UniProt P14902)",
    "IC50 / nM": 0.79
  },
  {
    "Molecule": "Cc1cccc(N2CCN(C(=O)Cn3nc(C(=O)N4C[C@@H](C)O[C@@H](C)C4)c4c3C[C@H]3C[C@@H]43)CC2)c1C",
    "System name": "IDO1 (Homo sapiens, UniProt P14902)",
    "IC50 / nM": 1.13
  },
  {
    "Molecule": "Cc1cccc(N2CCN(C(=O)Cn3nc(C(=O)N4CCC(O)(CO)CC4)c4c3CCCC4)CC2)c1C",
    "System name": "IDO1 (Homo sapiens, UniProt P14902)",
    "IC50 / nM": 3.32
  },
  {
    "Molecule": "Cc1c(Cl)cccc1N1CCN(C(=O)Cn2nc(C(=O)N3CCC(O)C(C)C3)c3c2C[C@H]2C[C@@H]32)CC1 (stereo in doubt) [Example 353]",
    "System name": "IDO1 (Homo sapiens, UniProt P14902)",
    "IC50 / nM": 1.18
  },
  {
    "Molecule": "Cc1cccc(N2CCN(C(=O)Cn3nc(C(=O)N4CCC(O)CC4)c4c3CCCCC4)CC2)c1C",
    "System name": "IDO1 (Homo sapiens, UniProt P14902)",
    "IC50 / nM": 2.63
  },
  {
    "Molecule": "Cc1cccc(N2CCN(C(=O)Cn3nc(C(=O)N4CCC5(CC4)COC(CO)C5)c4c3C[C@H]3C[C@@H]43)CC2)c1C (some centres unmarked) [Example 268]",
    "System name": "IDO1 (Homo sapiens, UniProt P14902)",
    "IC50 / nM": 1.25
  },
  {
    "Molecule": "Cc1c(F)ccc(N2CCN(C(=O)Cn3nc(C(=O)N4CC[C@@H](O)[C@H](F)C4)c4c3C[C@H]3C[C@@H]43)C3(CC3)C2)c1C",
    "System name": "IDO1 (Homo sapiens, UniProt P14902)",
    "IC50 / nM": 1.41
  },
  {
    "Molecule": "Cc1cccc(N2CCN(C(=O)Cn3nc(C(=O)N4CC[C@@H](N)[C@H](F)C4)c4c3CCC4)CC2)c1C",
    "System name": "IDO1 (Homo sapiens, UniProt P14902)",
    "IC50 / nM": 28
  },
  {
    "Molecule": "Cc1c(C(F)F)cccc1N1CCN(C(=O)Cn2nc(C(=O)N3CCC(OCCO)CC3)c3c2C[C@H]2C[C@@H]32)CC1",
    "System name": "IDO1 (Homo sapiens, UniProt P14902)",
    "IC50 / nM": 1.88
  },
  {
    "Molecule": "O=C(Cn1nc(C(=O)N2CC[C@H](O)[C@H](F)C2)c2c1CCC2)N1CCN(C2CCc3ccccc32)CC1 (single isomer, unassigned) [Example 440]",
    "System name": "IDO1 (Homo sapiens, UniProt P14902)",
    "IC50 / nM": 2520
  }
]

Take each entry in turn and give its IC50.
1. Cc1c(Cl)cccc1N1CCN(C(=O)Cn2nc(C(=O)N3CCC(O)(CF)CC3)c3c2CCCC3)CC1
2. Cc1cccc(N2CCN(C(=O)Cn3nc(C(=O)N4CC[C@@H](O)[C@@H](F)C4)c4c3C[C@H]3C[C@@H]43)C3(CC3)C2)c1C
3. Cc1cccc(N2CCN(C(=O)Cn3nc(C(=O)N4CCOC(CO)C4)c4c3CCC4)CC2)c1C (centres unmarked) [Example 103]
4. Cc1cccc(N2CCN(C(=O)Cn3nc(C(=O)N4CCC(F)(CO)CC4)c4c3C[C@H]3C[C@@H]43)C3(CC3)C2)c1C
5. Cc1cccc(N2CCN(C(=O)Cn3nc(C(=O)N4CC5CCC4CC5O)c4c3CCC4)CC2)c1C (centres unmarked) [Example 151]

Reply text:
1. 1.09
2. 1.19
3. 18.3
4. 0.8
5. 4.63

I need IC50 for every entry listed below, if you could help.
1. Cc1c(C(F)F)cccc1N1CCN(C(=O)Cn2nc(C(=O)N3CC[C@@H](O)[C@@H](F)C3)c3c2C[C@H]2C[C@@H]32)CC1
2. Cc1cccc(N2CCN(C(=O)Cn3nc(C(=O)N4CCC(C)(N)CC4)c4c3CCC4)CC2)c1C
3. Cc1cccc(N2CCN(C(=O)Cn3nc(C(=O)N4CCN(CCO)CC4)c4c3CCC4)CC2)c1C

Reply text:
2.73
476
10.5

Would you be so kind as to report IC50 for each listed record?
1. Cc1c(F)ccc(N2CCN(C(=O)Cn3nc(C(=O)N4CCN(CC(N)=O)CC4)c4c3C[C@H]3C[C@@H]43)C3(CC3)C2)c1C
2. Cc1cccc(N2CCN(C(=O)Cn3nc(C(=O)N4CCCC4)c4c3CCC(F)C4)CC2)c1C (single isomer, unassigned) [Example 7]
3. Cc1c(F)ccc(N2CCN(C(=O)Cn3nc(C(=O)N4CC[C@H](O)[C@H](F)C4)c4c3C[C@H]3C[C@@H]43)C3(CC3)C2)c1C

Reply text:
1.6
11.1
1.65

Give one value of IC50 per listed molecule.
1. CC(=O)NC1CCN(C(=O)c2nn(CC(=O)N3CCN(c4cccc(Cl)c4C)CC3)c3c2CC(F)(F)CC3)CC1
2. Cc1cccc(N2CCN(C(=O)Cn3nc(C(=O)N4CCC5(CC4)CNC(=O)CO5)c4c3CCC4)CC2)c1C

Reply text:
1. 1.67
2. 1.62

----------
Give measured IC50 for each item. Keep answers brief.
System name: IDO1 (Homo sapiens)
Assay info: IDO1 Cellular Assay in HeLa Cells Stimulated with IFNγ
Assay type: cell-based
Condition details: read-out: HeLa Cell Potency, IC50
Numbers only, in µM.

[
  {
    "Compound": "Cc1cccc(N2CCN(C(=O)Cn3nc(C(=O)N4CCC(F)(CN)CC4)c4c3CCC4)CC2)c1C",
    "Units label": "µM",
    "Reported": 0.0164
  }
]

Give IC50 for all compounds that follow.
1. Cc1cccc(N2CCN(C(=O)Cn3nc(C(=O)N4CCN(C5COC5)CC4)c4c3CCC4)CC2)c1C
2. C[C@@H]1CN(C(=O)c2nn(CC(=O)N3CCN(c4cc(F)c(F)cc4Cl)CC3)c3c2CCC3)C[C@H](C)O1
3. Cc1cccc(N2CCN(C(=O)Cn3nc(C(=O)N4CCC(O)C(CO)C4)c4c3CCC4)CC2)c1C (centres unmarked)

Reply text:
1: 0.00588; 2: 0.26; 3: 0.00798

Dear colleague, could you send me IC50 for each of the items below? Thanks.
1. COc1c(C#N)cccc1N1CCN(C(=O)Cn2nc(C(=O)N3C[C@@H](C)O[C@@H](C)C3)c3c2CCC3)CC1
2. Cc1cccc(N2CCN(C(=O)Cn3nc(C(=O)N4CCO[C@H](CO)C4)c4c3C[C@H]3C[C@@H]43)C3(CC3)C2)c1C
3. Cc1cccc(N2CCN(C(=O)Cn3nc(C(=O)N4CCC(O)C(F)C4)c4c3CCC4)C3(CC3)C2)c1C (single isomer, unassigned) [Example 393]
4. Cc1cc(C#N)ccc1N1CCN(C(=O)Cn2nc(C(=O)N3C[C@@H](C)O[C@@H](C)C3)c3c2CCC3)CC1

Reply text:
1. 0.335
2. 0.00252
3. 0.00761
4. 0.478

----------
System name: IDO1 (Homo sapiens, UniProt P14902)
Assay info: IDO1 Cellular Assay in HeLa Cells Stimulated with IFNγ
Type: cell-based
Condition details: read-out: HeLa Cell Potency, IC50
Description: IDO1 Cellular Assay in HeLa Cells Stimulated with IFNγ HeLa cells were cultured in complete HeLa culture medium (90% EMEM, 10% heat-inactivated fetal bovine serum) and expanded to about 1×10^9 cells. […] Frozen HeLa cells were thawed and transferred into HeLa assay medium (99% complete HeLa culture medium, 1% Pen/Strep) with 20 mL medium/vial of cells. […] The cells were then counted and adjusted to a density of 2×10^5 cells/mL in HeLa assay medium. […]
pIC50: −log10 of the molar value.
Returns MET if the recorded pIC50 is greater than or equal to 7, and NOT MET otherwise.

Inquiry: Reported pIC50 reaches at least 7 for Cc1cccc(N2CCN(C(=O)Cn3nc(C(=O)N4CCC5(CCNC5)CC4)c4c3CCC4)CC2)c1C ?
Reply text: NOT MET

Inquiry: Could you please find out whether Cc1cccc(N2CCN(C(=O)Cn3nc(C(=O)N4CC[C@@H](O)[C@H](F)C4)c4c3CCCC4)CC2)c1C has pIC50 that meets 7 or exceeds it?
Reply text: MET

Inquiry: Check this compound for pIC50 at or above 7: Cc1c(Cl)cccc1N1CCN(C(=O)Cn2nc(C(=O)N3CCN(C(=O)CO)CC3)c3c2CCC(F)C3)CC1 (stereo not drawn) [Example 376]
Reply text: MET

Inquiry: Dear colleague, could you confirm whether C[C@@H]1CN(C(=O)c2nn(CC(=O)N3CCN(c4cc(F)c(F)cc4F)CC3)c3c2CCC3)C[C@H](C)O1 has pIC50 at or above 7?
Reply text: NOT MET

Inquiry: Item Cc1cccc(N2CCN(C(=O)Cn3nc(C(=O)N4C[C@H]5CC[C@H](O)[C@H]5C4)c4c3CCC4)CC2)c1C with pIC50 of 7 or above?
Reply text: MET

Inquiry: Given Cc1cccc(N2CCN(C(=O)Cn3nc(C(=O)N4CCC5(CCC(=O)N5C)CC4)c4c3CCC4)CC2)c1C , state whether its pIC50 is at least 7.
Reply text: MET

Inquiry: Dear colleague, could you confirm whether CC(=O)NC1CCN(C(=O)c2nn(CC(=O)N3CCN(c4cccc(Cl)c4C)CC3)c3c2CC(F)CC3)CC1 (stereo not drawn) [Example 377] has pIC50 at or above 7?
Reply text: MET
